The values you see were collected from patent US20240209100A1.

# Target System: T1, IL-18 receptor (IL-18Rα/IL-18Rβ) overexpressed on HEK-Blue IL-18 cells (Homo sapiens (Human), UniProt Q13478 19-541; O95256 20-599)
# T1 sequence 1: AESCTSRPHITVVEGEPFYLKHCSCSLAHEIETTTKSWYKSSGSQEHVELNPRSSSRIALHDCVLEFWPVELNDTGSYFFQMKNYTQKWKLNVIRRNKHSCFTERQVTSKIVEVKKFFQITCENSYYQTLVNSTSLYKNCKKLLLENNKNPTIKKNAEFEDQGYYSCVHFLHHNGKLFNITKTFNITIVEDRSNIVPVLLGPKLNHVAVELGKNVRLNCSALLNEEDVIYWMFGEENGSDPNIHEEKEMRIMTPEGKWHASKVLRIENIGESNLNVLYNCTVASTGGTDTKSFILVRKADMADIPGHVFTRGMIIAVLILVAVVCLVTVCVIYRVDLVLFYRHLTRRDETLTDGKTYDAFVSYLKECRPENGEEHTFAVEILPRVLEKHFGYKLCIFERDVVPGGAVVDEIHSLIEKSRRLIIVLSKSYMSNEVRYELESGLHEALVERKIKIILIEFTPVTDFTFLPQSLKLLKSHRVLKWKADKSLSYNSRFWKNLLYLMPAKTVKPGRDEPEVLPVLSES
# T1 sequence 2: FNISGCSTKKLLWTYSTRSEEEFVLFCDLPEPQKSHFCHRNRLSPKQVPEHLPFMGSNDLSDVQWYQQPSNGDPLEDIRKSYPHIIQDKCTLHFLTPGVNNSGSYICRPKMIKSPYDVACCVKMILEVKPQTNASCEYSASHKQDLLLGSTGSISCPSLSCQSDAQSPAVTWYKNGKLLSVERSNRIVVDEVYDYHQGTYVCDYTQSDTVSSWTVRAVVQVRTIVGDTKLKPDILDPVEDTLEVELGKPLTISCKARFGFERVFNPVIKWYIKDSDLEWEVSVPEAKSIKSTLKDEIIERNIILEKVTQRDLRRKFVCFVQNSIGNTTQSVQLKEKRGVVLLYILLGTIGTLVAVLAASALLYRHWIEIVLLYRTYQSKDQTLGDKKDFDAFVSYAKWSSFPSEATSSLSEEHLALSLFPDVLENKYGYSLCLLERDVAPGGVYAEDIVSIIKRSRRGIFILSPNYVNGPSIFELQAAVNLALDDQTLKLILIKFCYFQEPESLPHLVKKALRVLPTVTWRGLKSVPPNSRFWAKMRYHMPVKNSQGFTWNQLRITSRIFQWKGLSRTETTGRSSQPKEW
# Experiment Summary: cell-based or functional assay
Result Type: HEK-Blue IL-18: Fold over Background (fold)
Please respond with the number in fold and leave the unit unwritten.

Consider DGL314 (bispecific antibody, V domains shown) V domain 1: QVQLQESGGGLVQPGGSLRLSCAASGSIFSTKGLGWYRQAPGEQRELVAGISSAGWIFYTQSVKGRFTMSRDNAKNTVYLQMNSLKPEDTAVYYCNSAQSGVPLRSWGQGTQVTVAS V domain 2: QVQLVESGGGLVQAGGSLRLSCAASGMFFSIGEMGWYRQAPGKQREMVARITRDGRINYADSVEGRFTASRNVAKTTLFLQMNSLKPEDTANYQCTVRRWDEEYWGKGTLVTVSD . Its measured HEK-Blue IL-18: Fold over Background is 3.6

Consider DGL316 (bispecific antibody, V domains shown) V domain 1: QVQLVESGGGLVQAGGSLRLSCAASGRTFSKHAMGWFRQAPGKEREFVAAIDWSGGSTYYADSVKGRFTISRDNAKNTVYLQMDSLKPEDTAVYYCAADSYTDYAQLWLPELESEYDYWGQGTQVTVSS V domain 2: QVQLVESGGGLVQAGGSLRLSCAASGMFFSIGEMGWYRQAPGKQREMVARITRDGRINYADSVEGRFTASRNVAKTTLFLQMNSLKPEDTANYQCTVRRWDEEYWGKGTLVTVSD . Its measured HEK-Blue IL-18: Fold over Background is 2.5

Consider DGL318 (bispecific antibody, V domains shown) V domain 1: QVQLVESGGGLVQAGGSLRLSCAASGRTFSSYDMGWFRQAPGKEREFVAALRWSGGSTSYADSVKGRFTISRDNAKNTVYLHMNSLKPEDTAVYYCAATLETDSGTYWADYWGQGTQVTVSS V domain 2: QLQLVESGGGLVQAGGSLRLSCAASRSITFSHNVMGWYRQAPGKQRELVASIGSGGSTNYVDSVKGRATISRDNAKKTVYLQMNSLKPEDTAVYYCGVVVGVYRGSLGQGTQVTVSS . Its measured HEK-Blue IL-18: Fold over Background is 9.7

Consider DGL320 (bispecific antibody, V domains shown) V domain 1: QVQLQESGGGLVQPGGSLRLSCAASGSIFSTKGLGWYRQAPGEQRELVAGISSAGWIFYTQSVKGRFTMSRDNAKNTVYLQMNSLKPEDTAVYYCNSAQSGVPLRSWGQGTQVTVAS V domain 2: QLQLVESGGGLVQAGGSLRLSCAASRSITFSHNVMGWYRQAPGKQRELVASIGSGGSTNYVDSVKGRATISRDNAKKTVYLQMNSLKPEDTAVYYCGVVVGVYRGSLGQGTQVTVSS . Its measured HEK-Blue IL-18: Fold over Background is 10.3

Consider DGL308 (bispecific antibody, V domains shown) V domain 1: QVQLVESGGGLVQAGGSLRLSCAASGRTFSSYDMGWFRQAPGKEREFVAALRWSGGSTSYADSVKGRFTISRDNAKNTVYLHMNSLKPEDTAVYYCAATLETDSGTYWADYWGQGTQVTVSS V domain 2: EVQLVESGGGVAQAGGSLRLSCAASITSFSLNTMGYYRQLPGKQRELVAVESSSGITNYADSVKGRFTISRDGAKNTVFLQMNSLTPEDTAVYYCGGKLFGRDFWGQGTQVTVSS . Its measured HEK-Blue IL-18: Fold over Background is 6.4

New cases:
Consider DGL250 (bispecific antibody, V domains shown) V domain 1: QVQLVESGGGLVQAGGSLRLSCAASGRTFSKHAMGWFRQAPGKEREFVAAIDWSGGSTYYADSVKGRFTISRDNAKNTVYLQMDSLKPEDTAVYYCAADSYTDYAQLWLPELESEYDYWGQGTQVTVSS V domain 2: QLQLVESGGGLVQPGGSLRLSCAAPGRIFGLNAMGWYRQAPGKQRELVASITTGGSTNYADSGKGRFTLSRSNAQNTVYRQMNSLQPEDTAVYYCNAKRGLNLNYWGQGTQVTVSS . Its measured HEK-Blue IL-18: Fold over Background is 2

Consider DGL313 (bispecific antibody, V domains shown) V domain 1: EVQLVESGGGLVQPGGSLRLSCAASGSIFSINAMGWYRQAPGKQREVVATSTGGGMTNYADSVKGRFTISRDNAKNTVYLQMNSLKPEDTAVYYCNADKDPFFPGDYWGQGTQVTVSS V domain 2: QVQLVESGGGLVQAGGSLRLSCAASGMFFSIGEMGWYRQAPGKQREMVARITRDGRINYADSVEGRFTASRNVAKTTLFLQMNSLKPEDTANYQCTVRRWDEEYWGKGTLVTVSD . Its measured HEK-Blue IL-18: Fold over Background is 2.7

Consider DGL301 (bispecific antibody, V domains shown) V domain 1: QVQLQESGGGLVQPGGSARLSCVASGIIFNDYHMGWYRQAPGKQRDLVAGITAGGSTTYADSVKGRFTISRDNAKHTVYLQMNNLSPEDTAVYYCNTFYNAILDWGKGTLVTVSS V domain 2: QVQLVESGGGLVLPGESLRLSCVVSGTIDNINSMGWYRQAPGKQRELVAYITKLGSANYADSVEGRFTISRDNAKKTVHLQMNSLKPEDTAVYYCHANERGRITWAQGTQVTVSS . Its measured HEK-Blue IL-18: Fold over Background is 2.9

Consider DGL294 (bispecific antibody, V domains shown) V domain 1: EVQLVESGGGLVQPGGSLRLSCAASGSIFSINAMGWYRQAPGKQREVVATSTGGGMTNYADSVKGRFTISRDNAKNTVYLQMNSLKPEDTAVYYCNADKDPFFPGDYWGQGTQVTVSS V domain 2: QVQLVESGGDLVLPGGSLKLSCEASGSISSRNSMAWYRRAPGKQRELVAAISSISSGGRTDYADFVKGRFTIFRDTAKNMVYLQMNNLKPEDTAVYDCDDPIRVASLAYDDWGQGTQVTVSS . Its measured HEK-Blue IL-18: Fold over Background is 3.7

Consider DGL295 (bispecific antibody, V domains shown) V domain 1: QVQLQESGGGLVQPGGSARLSCVASGIIFNDYHMGWYRQAPGKQRDLVAGITAGGSTTYADSVKGRFTISRDNAKHTVYLQMNNLSPEDTAVYYCNTFYNAILDWGKGTLVTVSS V domain 2: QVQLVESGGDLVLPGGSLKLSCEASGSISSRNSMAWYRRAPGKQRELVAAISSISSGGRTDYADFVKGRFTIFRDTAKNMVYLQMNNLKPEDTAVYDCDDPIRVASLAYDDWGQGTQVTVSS . Its measured HEK-Blue IL-18: Fold over Background is 2
